- STUDY TARGET: T1, recombinant human soluble gpNMB (recombinant human gpNMB-FLAG-His) (human, UniProt Q14956 23-498)
- T1 sequence: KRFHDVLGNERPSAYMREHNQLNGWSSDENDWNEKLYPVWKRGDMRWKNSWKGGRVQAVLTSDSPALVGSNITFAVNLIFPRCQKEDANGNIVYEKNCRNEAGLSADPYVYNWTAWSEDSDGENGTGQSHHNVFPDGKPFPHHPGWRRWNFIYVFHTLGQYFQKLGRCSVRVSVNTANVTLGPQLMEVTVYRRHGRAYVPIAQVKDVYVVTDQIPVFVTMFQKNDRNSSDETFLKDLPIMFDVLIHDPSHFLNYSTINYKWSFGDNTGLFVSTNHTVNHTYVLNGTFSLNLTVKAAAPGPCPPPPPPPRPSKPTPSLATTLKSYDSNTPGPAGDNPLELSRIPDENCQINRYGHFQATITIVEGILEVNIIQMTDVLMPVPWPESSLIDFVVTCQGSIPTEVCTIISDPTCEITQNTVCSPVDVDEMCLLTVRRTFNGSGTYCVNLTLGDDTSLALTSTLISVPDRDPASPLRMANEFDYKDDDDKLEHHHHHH
- TEST DESCRIPTION: antigen ELISA, vs hGPN18-2_H2L3
EXPERIMENTAL ENDPOINT: Relative binding activity
// no unit string in output, number only

Reference set (4 entries):
BINDER	EXPERIMENTAL ENDPOINT	ENDPOINT RESULT
hGPN18-2_H2L3 VH Y108A (antibody, V domains shown) VH: QVQLVQSGPGLVQPTQTLTLTCSFSGFSLSTSVMGVGWIRQPSGKGLEWLADIWWDDDKDYNPSLKSRLTISKDTSKNQVVLTMTNMDTVDTATYYCARTYYSNYEYAGMDYWGQGTLVTVSS VL: DIVMTQSPDSLAVSLGERATINCRSSQTIILSNGNTYLEWYQQKPGQPPKLLIYKVSNRFSGVPDRFSGSGSGTDFTLTISSLQAEDVAVYYCFQGSHVPFTFGSGTKLEIKR	Relative binding activity	0.91
hGPN18-2_H2L3 VH Y61A (antibody, V domains shown) VH: QVQLVQSGPGLVQPTQTLTLTCSFSGFSLSTSVMGVGWIRQPSGKGLEWLADIWWDDDKDANPSLKSRLTISKDTSKNQVVLTMTNMDTVDTATYYCARTYYSNYEYYGMDYWGQGTLVTVSS VL: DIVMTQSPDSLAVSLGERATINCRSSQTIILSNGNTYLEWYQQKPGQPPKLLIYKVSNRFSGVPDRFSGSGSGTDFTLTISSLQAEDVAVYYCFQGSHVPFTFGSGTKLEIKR	Relative binding activity	0.7
hGPN18-2_H2L3 VH D111A (antibody, V domains shown) VH: QVQLVQSGPGLVQPTQTLTLTCSFSGFSLSTSVMGVGWIRQPSGKGLEWLADIWWDDDKDYNPSLKSRLTISKDTSKNQVVLTMTNMDTVDTATYYCARTYYSNYEYYGMAYWGQGTLVTVSS VL: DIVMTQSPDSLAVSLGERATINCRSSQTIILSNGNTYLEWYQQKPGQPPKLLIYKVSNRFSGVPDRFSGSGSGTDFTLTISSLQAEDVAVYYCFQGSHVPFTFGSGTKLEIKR	Relative binding activity	0.62
hGPN18-2_H2L3 VH Y101A (antibody, V domains shown) VH: QVQLVQSGPGLVQPTQTLTLTCSFSGFSLSTSVMGVGWIRQPSGKGLEWLADIWWDDDKDYNPSLKSRLTISKDTSKNQVVLTMTNMDTVDTATYYCARTAYSNYEYYGMDYWGQGTLVTVSS VL: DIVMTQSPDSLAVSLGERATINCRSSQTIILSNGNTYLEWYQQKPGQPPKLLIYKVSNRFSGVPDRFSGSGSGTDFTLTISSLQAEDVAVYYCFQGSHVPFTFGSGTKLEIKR	Relative binding activity	0.61

Then this binder:
Exercise: I have this binder here, hGPN18-2_H2L3 VH G109A (antibody, V domains shown) VH: QVQLVQSGPGLVQPTQTLTLTCSFSGFSLSTSVMGVGWIRQPSGKGLEWLADIWWDDDKDYNPSLKSRLTISKDTSKNQVVLTMTNMDTVDTATYYCARTYYSNYEYYAMDYWGQGTLVTVSS VL: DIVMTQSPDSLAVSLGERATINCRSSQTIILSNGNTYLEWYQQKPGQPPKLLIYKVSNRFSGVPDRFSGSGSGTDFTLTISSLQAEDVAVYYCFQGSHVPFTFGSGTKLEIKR , and I need its recorded Relative binding activity.
Solution: 0.61
